Data origin, for the record: PubChem BioAssay

composite z-score values by entry
# Tested on: wheat germ agglutinin (Triticum aestivum), Alexa647-labelled
# assay-summary: wheat germ agglutinin binders on compound microarrays, profiling panel, artefact control for SMM control-protein annotation, biochemical, small-molecule microarray, 635/667 nm fluorescence (AID 1140);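 further: score merges 667 nm feature emission with signal to noise over triplicate slides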
# stated-conditions: WGA-A647 binding, 635 nm fluorescence, higher = more signal

compound	composite z-score
C=CCOC(=O)[C@@H]1[C@H]2C(=O)O[C@H](c3ccccc3)[C@H](c3ccccc3)N2[C@H](c2ccc(OCCOC(=O)[C@H]3C[C@H]4C(=O)N[C@@H](CC(C)C)C(=O)N4[C@H]3c3ccc(O)cc3)cc2)[C@@]12C(=O)Nc1ccc(I)cc12	0.747
CO[C@H]1O[C@H](CO)[C@@H](OC(=O)Nc2ccc(C(F)(F)F)cc2)[C@H](OC(=O)Nc2ccc3c(c2)OCO3)[C@H]1OC(=O)Nc1ccc2c(c1)OCO2	1.07
COc1ccc(NN2C(C(O)c3ccccn3)C=CC3C(=O)N(C4CCCCC4)C(=O)C32)cc1 (stereo unspecified)	0.836
COC(=O)[C@@]1(Cc2ccccc2)[C@H]2c3cc(C(=O)N4CCCC4)n(Cc4ccsc4Br)c3C[C@H]2CN1C(=O)c1ccccc1	1.25
COc1cc(CO)cc(I)c1O[C@H]1C=C(C(=O)NCCO)C[C@@H](N(CC2CCCCC2)C(=O)c2ccc(C(F)(F)F)cc2)[C@@H]1O	0.193
COCCOC(=O)N1C(=O)[C@@]2(c3cc(C#CC4=CCCCC4)ccc31)[C@H](C(=O)N1CCN(c3ncccn3)CC1)[C@H]1C(=O)O[C@H](c3ccccc3)[C@H](c3ccccc3)N1[C@@H]2c1ccc(O)cc1	1.11

* * *

composite z-score values by entry
# System: Wnt5a (protein binding on small-molecule microarray)
# assay-summary: Wnt5a binders on small-molecule microarray, primary screen, biophysical, 635/667 nm fluorescence (AID 1142);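 further: fluorescence read at 667 nm with signal to noise per printed feature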
# stated-conditions: 635 nm fluorescence, higher = more signal
assay-readout: composite z-score

query-smiles	assay-value
COCCOC(=O)N1C(=O)[C@@]2(c3cc(C#CCNC(N)=O)ccc31)[C@H](C(=O)N1CCCCCCC1)[C@H]1C(=O)O[C@H](c3ccccc3)[C@H](c3ccccc3)N1[C@@H]2c1ccc(O)cc1	0.233
CCCC[C@@H]1C[C@H]1[C@@H](NC(=O)c1ccccc1)c1ccc(Cl)cc1	-0.546
C=C(/C(=C/C[C@@H](OC(=O)c1ccncc1)c1ccccc1OCCO)c1cc(C(=O)OC)ccc1OC)C(C)C	0.449
COc1ccc([Si](C)(C)[C@@H]2[C@@H](CCO)O[C@]3(C(=O)N(Cc4cccc(N5C(=O)c6ccccc6Oc6ccccc65)c4)c4ccccc43)[C@H]2C)cc1	-0.193
COCCOC(=O)N1C(=O)[C@@]2(c3cc(C#Cc4ccc(OC)cc4)ccc31)[C@H](C(=O)NC[C@H](O)c1ccccc1)[C@H]1C(=O)O[C@H](c3ccccc3)[C@H](c3ccccc3)N1[C@@H]2c1ccc(O)cc1	0.317
CCOC(=O)C1=CC[C@@H](c2cc(Cl)ccc2Cl)N(S(=O)(=O)c2ccc(C)cc2)[C@H]1c1ccc(OC)cc1	1.11
O=C1c2ccccc2[C@](Cc2ccccc2I)(C(=O)NCCN2CCOCC2)[C@H](c2ccc(CO)cc2)N1Cc1ccccc1	0.265
CO[C@H]1O[C@H](CO)[C@@H](OC(=O)Nc2ccccc2-c2ccccc2)[C@H](OC(=O)Nc2ccc3c(c2)OCO3)[C@@H]1OC(=O)Nc1ccc2c(c1)OCO2	0.25
[N-]=[N+]=NCc1ccccc1C[C@@]1(C(=O)NCCN2CCOCC2)N=C(c2ccc(OCCCO)cc2)O[C@@H]1c1ccccc1N=[N+]=[N-]	0.512
C[N+](C)(C)CCCC[C@@H]1NC(=O)[C@@H]2C[C@H](C(=O)O)[C@H](c3ccc(O)cc3)N2C1=O	-0.535
Cc1ccc(S[C@]2(C(=O)NCCN3CCOCC3)CC(=O)N(Cc3ccccc3C(F)(F)F)[C@@H]2c2ccc(CO)cc2I)cc1	0.0381
NC(N)=NCc1cn(CCc2c[nH]c3ccccc23)nn1	0.131
CC(C)(C)OC(=O)CC[C@]1(C(=O)NCCN2CCOCC2)N=C(c2ccc(OCCCO)cc2)O[C@H]1c1ccccc1N=[N+]=[N-]	0.191
O=C1c2ccccc2[C@@]2(Cc3ccccc3N(C3CC3)C2=O)[C@H](c2ccc(CO)cc2)N1C1CCCCC1	-0.157
